test: 1-Octanol-saturated McIlvaine buffer partition coefficient, log P of the compound at 80 uM at pH 6.01 by spectrophotometric analysis; format: physicochemical; conditions: 1-octanol/McIlvaine buffer
logD at 80 µM of 1 or higher: satisfied. Under 1: not satisfied.

>>> category("Cc1ncc([N+](=O)[O-])n1CCO")
"not satisfied"
>>> category("Cc1ncc([N+](=O)[O-])n1CCN=[N+]=[N-]")
"not satisfied"
>>> category("CC(=O)OCCn1c([N+](=O)[O-])cnc1C")
"not satisfied"

Please tell me: is the molecule Cc1ncc([N+](=O)[O-])n1CCSc1ccc(Cl)cc1 at or over 1 in terms of logD at 80 µM? satisfied

Determine whether this molecule has logD at 80 µM no lower than 1: CC(=O)NCCn1c([N+](=O)[O-])cnc1C not satisfied

Determine whether measured logD at 80 µM meets or exceeds 1 for Cc1ncc([N+](=O)[O-])n1CCSC(=S)N(C)C satisfied

###

assay: 1-Octanol-saturated McIlvaine buffer partition coefficient, log P of the compound at 80 uM at pH 6.01 by spectrophotometric analysis; format: physicochemical; conditions: 1-octanol/McIlvaine buffer
Measured endpoint: logD at 80 µM
Reply briefly: the number, and no unit.

Below are worked cases with known answers.
>>> number("Cc1ncc([N+](=O)[O-])n1CCS(=O)(=O)[O-].[Na+]")
-2.05
>>> number("Cc1ncc([N+](=O)[O-])n1CCOC(=O)N(C)C")
0.455

Shifting focus to the compound that follows.
logD at 80 µM measured on Cc1ncc([N+](=O)[O-])n1CCCl = 0.879
